- test protocol: Brain/plasma pharmacokinetics, single i.v. bolus in rats
- Format: in vivo, Sprague-Dawley rats
- experimental conditions: Sprague-Dawley, rat, plasma, iv, 10 mg/kg, 10 mg/kg bolus i.v., normal rats, t = 4 h; read-out: AUC0-t of Plasma
recorded metric: AUC(0-t) (ng·h/mL)
Quick note: give the figure in ng·h/mL, leave out the unit.

### Prompt Reported AUC(0-t), compound Cc1nc2c(c3c1[nH]c1ccccc13)C(=O)CC(C)(C)C2 [Example 1] : ____
### Response 2280

* * *

- test protocol: Brain/plasma pharmacokinetics, single i.v. bolus in rats
- Type: in vivo, Sprague-Dawley rats
- experimental conditions: Sprague-Dawley, rat, brain and plasma, intravenous, 10 mg/kg, 10 mg/kg bolus i.v., normal rats, t = 0.25 h; BrainAUC(0-t)/PlasmaAUC(0-t); read-out: BAUC/PAUC Ratio
recorded metric: Kp
Keep it simple and answer with nothing but the number.

### Prompt Returns the measured Kp for the input molecule. Input: Cc1nc2c(c3c1[nH]c1ccccc13)C(=O)CC(C)(C)C2
### Response 3.04
